Short version: boiling point at least 200 °C is criterion met, less is criterion not met.

INSERT INTO assay_data (compound, cat) VALUES
  ('Cc1cc(Cl)c(Cl)cc1Cl', 'criterion met'),
  ('COc1cccc(C=O)c1O', 'criterion met'),
  ('C=CCc1ccccc1', 'criterion not met'),
  ('C[Si](C)(C)O[Si](C)(C)O[Si](C)(C)C', 'criterion not met'),
  ('COC(=O)C(C)C(C)=O (stereo not drawn)', 'criterion not met'),
  ('CCOCCCl', 'criterion not met'),
  ('CCC(CC)C(C)C', 'criterion not met'),
  ('CCC#CCCCC', 'criterion not met'),
  ('OCC(F)(F)C(F)(F)C(F)(F)C(F)F', 'criterion not met'),
  ('CN1CCCC1', 'criterion not met'),
  ('C[Si](C)(Cl)O[Si](C)(C)Cl', 'criterion not met'),
  ('C=C(C)C(=O)OCCN(C)C', 'criterion not met'),
  ('CC(Cl)C(Cl)(Cl)Cl (stereo not drawn)', 'criterion not met'),
  ('CCCCCCCCCCCCN(C)C', 'criterion met'),
  ('COC(=O)C(C)=O', 'criterion not met'),
  ('CCCCCCCCC1CCCCC1', 'criterion met'),
  ('OCC(F)(F)C(F)F', 'criterion not met'),
  ('CCCCCI', 'criterion not met');

---

Could you please classify the records by log10 vapour pressure (mmHg) using these ranges: c1 = under -5, c2 = from -5 up to 0.4, c3 = 0.4 and over

INSERT INTO assay_data (compound, cat) VALUES
  ('C=CCOC(=O)OCC=C', 'c2'),
  ('CC(c1ccccc1)c1ccccc1', 'c2'),
  ('CCCCc1c(C)nc(NCC)nc1O', 'c1'),
  ('Cc1ccc(/N=C/N(C)/C=N/c2ccc(C)cc2C)c(C)c1', 'c1'),
  ('CCOCCO', 'c3'),
  ('O=C1CC(=O)NC(=O)N1', 'c1'),
  ('CC(C)(C)C#N', 'c3'),
  ('C/C(=C\c1ccccc1)C(=O)O', 'c2'),
  ('ClC(Cl)c1ccccc1', 'c2'),
  ('CCCN(CCC)c1c([N+](=O)[O-])cc(C(F)(F)F)c(N)c1[N+](=O)[O-]', 'c1'),
  ('FC(Cl)(Cl)C(F)(Cl)Cl', 'c3'),
  ('CC1(C)C(C(=O)OC(C#N)c2cccc(Oc3ccccc3)c2)C1(C)C (stereo not given)', 'c1'),
  ('CCCC1CCCCC1', 'c3');

---

Short version: melting point at least 30 °C is MET, less is NOT MET.

INSERT INTO results (compound, cat) VALUES
  ('CC(C)CS(=O)(=O)CC(C)C', 'NOT MET'),
  ('CC(=O)[C@@]1(O)CC[C@H]2[C@@H]3CCC4=CC(=O)CC[C@]4(C)[C@H]3CC[C@@]21C', 'MET'),
  ('Oc1ccccc1C=NCCN=Cc1ccccc1O', 'MET'),
  ('BrCC(Br)Br', 'NOT MET'),
  ('CCCOC(N)=O', 'MET'),
  ('C#CCCC(C)C', 'NOT MET'),
  ('CC1Cc2ccccc2N1NC(=O)c1ccc(Cl)c(S(N)(=O)=O)c1 (stereo not given)', 'MET'),
  ('Cc1ccc(O)c(C)c1C', 'MET'),
  ('N#CC(=NO)c1ccccc1', 'MET'),
  ('CCc1cccc(CC)c1N', 'NOT MET'),
  ('CCOP(=O)(OCC)OC(=CCl)c1ccc(Cl)cc1Cl', 'NOT MET'),
  ('COc1ccc(CO)cc1', 'NOT MET'),
  ('Cc1cc(N)c2ccccc2n1', 'MET'),
  ('CN1C[C@@H]2C[C@H](C1)c1cccc(=O)n1C2', 'MET'),
  ('O=NN1CCOCC1', 'NOT MET');

---

Listed here: items and their measured melting point.
Value Kind: melting point (°C)

INSERT INTO measurements (molecule, value_kind, quantity_unit, measured_result) VALUES
  ('O=c1[nH]ncc2ccccc12', 'melting point', '°C', 188),
  ('COCCOC', 'melting point', '°C', -58),
  ('O=C(O)C1C(c2ccccc2)C(C(=O)O)C1c1ccccc1 (stereo unspecified)', 'melting point', '°C', 228),
  ('Cc1cc(O)cc(O)c1C', 'melting point', '°C', 136),
  ('N#CCCc1ccccc1', 'melting point', '°C', -1),
  ('O=C(O)CCCCCCCCCCF', 'melting point', '°C', 36),
  ('COc1ccc(I)cc1', 'melting point', '°C', 53),
  ('CC#CC', 'melting point', '°C', -32.3),
  ('CCCCC1C(=O)NN(c2ccccc2)C1=O (stereo unspecified)', 'melting point', '°C', 102),
  ('Cc1cc(C)cc(N)c1', 'melting point', '°C', 9.8),
  ('CN(C(=O)N(C)c1ccccc1)c1ccccc1', 'melting point', '°C', 122),
  ('CCOS(=O)(=O)OCC', 'melting point', '°C', -24),
  ('CCOC(=O)CCCCCC(=O)O', 'melting point', '°C', 10),
  ('c1ccc2c(c1)-c1cc3ccccc3c3cc4ccccc4c-2c13', 'melting point', '°C', 232),
  ('O=C(O)c1ccccc1-c1ccccc1', 'melting point', '°C', 114),
  ('O=Cc1cc(O)ccc1[N+](=O)[O-]', 'melting point', '°C', 167);

---

Listed here: items and their measured melting point.
Value Kind: melting point (°C)

INSERT INTO results (molecule, measured_result) VALUES
  ('CCc1c(C(=O)O)c(=O)cnn1-c1ccc(Cl)cc1', 269),
  ('Clc1ccc(Cl)c(Cl)c1', 17),
  ('NS(=O)(=O)c1cc2c(cc1Cl)NC(CSCC(F)(F)F)NS2(=O)=O (stereo not given)', 206),
  ('C=C1CCC1', -135),
  ('C=CC#CC=C', -88),
  ('Cc1ccc(CN)cc1', 12.5),
  ('Oc1c(Cl)ccc(Cl)c1Cl', 58),
  ('CCCCCCCCCCCC(=O)OC(=O)CCCCCCCCCCC', 41.8),
  ('CN(C)c1ccccc1', 2.5),
  ('NC(=O)C[C@H](O)C(=O)O', 148),
  ('Cl.Cl.Cl.Cl.Nc1ccc(-c2ccc(N)c(N)c2)cc1N', 179),
  ('NNC(=O)c1ccc(Cl)cc1', 164),
  ('Oc1ccc(C(F)(F)F)cc1', 46),
  ('CC1=C2[C@H]3OC(=O)[C@@H](C)[C@@H]3CC[C@@]2(C)C=CC1=O', 175),
  ('Cc1ccc(N)c(Br)c1', 26);

---

Value Kind: melting point

INSERT INTO measurements (molecule, value_kind, measured_result) VALUES
  ('CCCCCCC(=O)c1ccccc1', 'melting point', '16.4 °C'),
  ('O=Cc1ccc(O)c([N+](=O)[O-])c1', 'melting point', '141 °C'),
  ('COCCl', 'melting point', '-104 °C'),
  ('ClC1CCCCC1', 'melting point', '-44 °C'),
  ('Cc1cc2c(cc1C)CCCC2', 'melting point', '10 °C'),
  ('CCCCCCC(=O)O', 'melting point', '-7.5 °C'),
  ('CCOC(=O)CN(C(=O)CCl)c1c(CC)cccc1CC', 'melting point', '49.5 °C'),
  ('O=C1CCC(=O)N1', 'melting point', '126 °C'),
  ('CCCOC(=O)c1cc(O)c(O)c(O)c1', 'melting point', '130 °C'),
  ('CC(C)[C@@H](C)/C=C/[C@@H](C)[C@H]1CC[C@H]2/C(=C/C=C3\C[C@@H](O)CC[C@@H]3C)CCC[C@]12C', 'melting point', '126 °C'),
  ('COC1=CC=C2[C@H]3Cc4ccc(OC)c5c4[C@@]2(CCN3C)[C@H]1O5', 'melting point', '193 °C'),
  ('CC(C)C(=O)C(C)C', 'melting point', '-69 °C'),
  ('CC(C)C(=O)c1ccccc1', 'melting point', '-1.3 °C'),
  ('CCCCC(CC)COC(=O)CCCCCCCCC(=O)OCC(CC)CCCC (centres undefined)', 'melting point', '-48 °C');

---

Settings: fish
Could you please classify the records by log10 BCF using these ranges: low interval (below 1), middle interval (1 to below 3), high interval (3 or more)

INSERT INTO measurements (compound, cat) VALUES
  ('O=[N+]([O-])c1cc(Cl)cc(Cl)c1', 'middle interval'),
  ('Cc1cc(Cl)c(Cl)cc1Cl', 'high interval'),
  ('Cc1cccc([N+](=O)[O-])c1', 'middle interval'),
  ('CN(C)C1CSSC1', 'middle interval'),
  ('CC(C)(C)c1cc(C(C)(C)C)c(O)c(C(C)(C)C)c1', 'high interval'),
  ('Clc1c(Cl)c(Cl)c(Cl)c(Cl)c1Cl', 'high interval'),
  ('C=C[C@@]1(C)CC[C@H]2C(=CC[C@@H]3[C@]2(C)CCC[C@@]3(C)C(=O)O)C1', 'middle interval'),
  ('Nc1cccc([N+](=O)[O-])c1', 'low interval'),
  ('CC(C)C(C(=O)OC(C#N)c1cccc(Oc2ccccc2)c1)c1ccc(Cl)cc1 (stereo not given)', 'middle interval'),
  ('O=[PH](O)c1ccccc1', 'low interval'),
  ('Nc1cccnc1', 'low interval'),
  ('O=[N+]([O-])c1cc(Cl)ccc1Cl', 'middle interval'),
  ('Clc1ccc(-c2ccc(Cl)c(Cl)c2)cc1Cl', 'high interval'),
  ('Clc1cc2oc3c(Cl)c(Cl)cc(Cl)c3c2c(Cl)c1Cl', 'high interval'),
  ('CCCCCCCCCc1ccc(O)cc1', 'middle interval'),
  ('NCCNCCN', 'low interval'),
  ('Cc1c(Cl)c(Cl)c(Cl)c(Cl)c1Cl', 'high interval'),
  ('COP1(=S)OCc2ccccc2O1 (stereo not given)', 'middle interval'),
  ('Cc1cccc(C)c1', 'middle interval'),
  ('Cc1ccccc1S(N)(=O)=O', 'low interval'),
  ('COc1c(O)cc(Cl)c(Cl)c1Cl', 'middle interval'),
  ('Nc1cccc(N)c1', 'low interval'),
  ('COP(=S)(OC)Oc1cc(Cl)c(I)cc1Cl', 'high interval'),
  ('Clc1cc(Cl)c2cc(Cl)ccc2c1', 'high interval'),
  ('CCOC(=O)C(SP(=S)(OC)OC)c1ccccc1 (stereo not given)', 'middle interval'),
  ('C=CCN(CC=C)CC=C', 'low interval'),
  ('CC(C)(C)CC(C)(C)c1ccc(O)cc1', 'middle interval'),
  ('Cc1cc(-c2ccc(N)c(C)c2)ccc1N', 'middle interval');
